Tested on: SK-MEL-5 melanoma
Test: NCI tumour cell line growth inhibition, 48 h
Listed next: entries and their corresponding TGI.

Reference set, count: 2
{"COMPOUND": "Nc1nc(SCC(=O)c2ccc(Br)cc2)c2[nH]cnc2n1", "TGI": "60.3 µM"}
{"COMPOUND": "COc1cccc(-c2nc3sccn3c2-c2ccnc(NCCCNS(=O)(=O)c3ccccc3)c2)c1", "TGI": "3.77 µM"}

Now, please, on to the next compound.
Ask: Item CC(C)CC(N)C(=O)NC(C(=O)NC(CCCNC(=N)N)C(=O)NC(CS)C(=O)NC1CSCC(C(=O)NC(Cc2ccccc2)C(=O)NC(C(=O)NC(CCCNC(=N)N)C(=O)O)C(C)C)NC(=O)C2CCCN2C(=O)C(CCCCN)NC(=O)C2CCCN2C(=O)C2CCCN2C(=O)C(Cc2ccc(O)cc2)NC(=O)C(CO)NC(=O)C(CCCCN)NC(=O)C(C(C)O)NC(=O)C(Cc2c[nH]c3ccccc23)NC1=O)C(C)C (stereo not drawn) with SK-MEL-5 melanoma - TGI?
Result: > 25 µM

---

Tested on: PC-3 prostate
Experiment: NCI tumour cell line growth inhibition, 48 h; in the data active means GI50 below about 0.43 µM; inactive means the rest
Field 'call' accepts class 1 = active, class 0 = inactive

Field: example entries. Status: answers known.
{"MOLECULE": "COc1ccc(-c2c(N)noc2-c2cc(OC)c3c(c2)OCCO3)cc1", "ASSIGNED CATEGORY": "class 1"}
{"MOLECULE": "Nn1c(-c2ccc(Cl)cc2)nc2c(-c3ccc(Cl)cc3)nc3ccc(Cl)cc3c2c1=O", "ASSIGNED CATEGORY": "class 0"}
{"MOLECULE": "CC(O)[C@H](NC(=O)N[C@@H](CC(N)=O)c1nc(N2CCNCC2)no1)C(=O)O (stereo partly specified)", "ASSIGNED CATEGORY": "class 0"}
{"MOLECULE": "CCc1ccc2c(c1)N(CCO)C1=C(C(=O)OC1)C2c1cc(OC)c(OC)c(OC)c1 (stereo unspecified)", "ASSIGNED CATEGORY": "class 1"}

Ask: Status in this test for O=C1Nc2ccc3c(c2/C1=C\c1cc2c(cc1Br)OCO2)OCO3 ?
Result: class 1

Ask: Status in this test for NC(=O)/C(=C/n1cnc(-c2cc(C(F)(F)F)cc(C(F)(F)F)c2)n1)c1cncnc1 ?
Result: class 1

Ask: Status in this test for COc1ccc(/C=C/C(=O)c2cc3c(N)c(C(=O)Nc4ccc(OC)cc4)sc3nc2C)cc1 ?
Result: class 0

Ask: Status in this test for CCOC(=O)[C@@H]1CSC(CC)=C(C(=O)O)N1 ?
Result: class 0

Ask: Status in this test for COc1cc(NC2CCCCC2O)c2nc(-c3ccc(Cl)cc3)ccc2c1 (stereo unspecified) ?
Result: class 0

---

Test system: M14 melanoma
Assay: NCI tumour cell line growth inhibition, 48 h
ENDPOINT: TGI (µM)
Report the value in µM with no unit label.

{"STRUCTURE SMILES STRING": "COc1cc(-c2nn(-c3cccc(NC(=O)CCN4CCN(c5ccccc5)CC4)c3)cc2-c2ccncc2)ccc1Cl", "RESULT UNITS": "µM", "TGI": 7.01}

Now, please, on to the next compound.
Ask: Consider the compound shown here: O=c1[nH]cnc2n[nH]nc12 What is its recorded TGI?
Result: 30.8

---

System: SK-OV-3 ovarian
Experiment: NCI tumour cell line growth inhibition, 48 h
ENDPOINT: TGI

Ask: Consider the compound shown here: Cc1ccc2nc(NS(=O)(=O)c3cc(C)c(Cl)cc3S)[nH]c2c1 What is its recorded TGI?
Result: > 100 µM

Ask: Consider the compound shown here: CCCCCCCCC(O)c1ccc(/C=C\C(O)CCCC(=O)O)s1 (stereo not given) What is its recorded TGI?
Result: > 100 µM

Ask: Consider the compound shown here: COc1ccc(C2Cc3cc(OC)c(OC)c(OC)c3C2)cc1 (stereo not given) What is its recorded TGI?
Result: > 100 µM

Ask: Consider the compound shown here: CC(C)OP(=O)(OC(C)C)C(C)(C)O What is its recorded TGI?
Result: > 100 µM

Ask: Consider the compound shown here: Cc1c(-c2ccccc2)[nH]c2cn[nH]c(=O)c12 What is its recorded TGI?
Result: > 100 µM

Ask: Consider the compound shown here: Clc1ccc(CN2CCCN(Cc3ccc(Cl)cc3)C2c2cc3ccccc3c3ccccc23)cc1 What is its recorded TGI?
Result: > 100 µM

Ask: Consider the compound shown here: Cc1ccc(C2CC(c3ccc(Nc4ccnc5cc(Cl)ccc45)cc3)=NN2C=O)cc1 (stereo not given) What is its recorded TGI?
Result: > 100 µM

Ask: Consider the compound shown here: CCOP(=O)(O)C(Nc1ccc(N=Nc2ccccc2)cc1)c1cccc(C(Nc2ccc(N=Nc3ccccc3)cc2)P(=O)(O)OCC)c1 (stereo not given) What is its recorded TGI?
Result: > 100 µM

Ask: Consider the compound shown here: COc1ccc(C(O)c2cc3c(N)c(C(=O)Nc4cccc(Br)c4C)sc3nc2C)cc1 (stereo not given) What is its recorded TGI?
Result: > 33.3 µM

Ask: Consider the compound shown here: COc1ccc(-c2cc(/C=C/C(=O)c3ccc(N)cc3)[nH]n2)cc1 What is its recorded TGI?
Result: 18 µM

---

System: OVCAR-3 ovarian
Assay: NCI tumour cell line growth inhibition, 48 h; in the data active means GI50 below about 0.43 µM; inactive means the rest
Field 'call' accepts active, inactive

Field: example entries. Status: answers known.
{"COMPOUND": "COc1ccc(C2=Nn3c(nnc3-n3nc(C)cc3C)SC2)cc1", "ASSIGNED CATEGORY": "active"}
{"COMPOUND": "CC(=O)Oc1cc2cnc3c4cc(OC(C)=O)c(OC(C)=O)cc4ccc3c2cc1OC(C)=O", "ASSIGNED CATEGORY": "inactive"}
{"COMPOUND": "COCC(C(=O)OC1C/C=C/C=C/C(=O)OC(C(C)C(O)C(C)CCC(OC(=O)C(C)N(C)C)C(C)C(OC(C)=O)C(C)/C=C/N(C)C=O)C/C=C/C(OC)CC(C)C/C=C(\\C)C(OC)CCC(C)C(O)C1C)N(C)C (stereo not drawn)", "ASSIGNED CATEGORY": "active"}

Now, please, on to the next compound.
Ask: Status in this test for CC1(C)C2CCC13C(=O)C1OC3(C2)C2C(=O)c3c(ccc4c3ccc3ccccc34)C(=O)C12 (stereo not drawn) ?
Result: inactive

---

Listed next: entries and their corresponding TGI.
Test system: NCI-H226 lung
Test: NCI tumour cell line growth inhibition, 48 h

Reference set, count: 3
{"MOLECULE": "NC(=O)[N+](=CC(=S)Nc1ccccc1Cl)C(N)=O", "TESTED ON": "NCI-H226 lung", "REPORTED RESULT": "> 100 µM"}
{"MOLECULE": "CCOP(=O)(O)C(Nc1ccc(N=Nc2ccccc2)cc1)c1cccc(C(Nc2ccc(N=Nc3ccccc3)cc2)P(=O)(O)OCC)c1 (stereo not given)", "TESTED ON": "NCI-H226 lung", "REPORTED RESULT": "> 100 µM"}
{"MOLECULE": "CNC(=O)OCc1nc(SC)n(C)c1COC(=O)NC", "TESTED ON": "NCI-H226 lung", "REPORTED RESULT": "400 µM"}

Ask: Consider the molecule shown here: Cc1ccc(S(=O)(=O)N2CCSCCSCCSCCN(S(=O)(=O)c3ccc(C)cc3)CC2)cc1 What is its recorded TGI?
Result: > 100 µM

Ask: Consider the molecule shown here: CC1=NN(c2nc(N)nc(/C(C#N)=C\c3ccc(-c4ccc([N+](=O)[O-])cc4)o3)n2)C(C)(C)C1 What is its recorded TGI?
Result: > 100 µM

Ask: Consider the molecule shown here: Cc1ccc(S(=O)C(C)C(Cl)c2ccccc2)cc1 (stereo not given) What is its recorded TGI?
Result: > 100 µM

Ask: Consider the molecule shown here: Cc1ccc2ccc(-c3ccccc3)c3c2c1C(=O)c1ccccc1C3=O What is its recorded TGI?
Result: > 100 µM

Ask: Consider the molecule shown here: CC(C)OP(=O)(OC(C)C)C(C)(C)O What is its recorded TGI?
Result: > 100 µM

---

Tested on: SK-MEL-5 melanoma
Experiment: NCI tumour cell line growth inhibition, 48 h
Listed next: entries and their corresponding TGI.

Reference set, count: 5
{"COMPOUND": "O=P(NCCCO)(OCc1ccccc1)N(CCCl)CCCl (stereo unspecified)", "ENDPOINT": "TGI", "REPORTED RESULT": "> 100 µM"}
{"COMPOUND": "COc1ccc(C2=Nn3c(nnc3-n3nc(C)cc3C)SC2)cc1", "ENDPOINT": "TGI", "REPORTED RESULT": "4.23 µM"}
{"COMPOUND": "Cn1c(=O)c2c(nc(N/N=C/c3ccccc3C(=O)O)n2C)n(C)c1=O", "ENDPOINT": "TGI", "REPORTED RESULT": "> 100 µM"}
{"COMPOUND": "O=c1cccc(Cl)[nH]1", "ENDPOINT": "TGI", "REPORTED RESULT": "> 100 µM"}
{"COMPOUND": "CC(Oc1ccccc1Cl)C(=O)NN1C(=O)CC(=O)N(c2ccc(Cl)cc2)C1=S (stereo unspecified)", "ENDPOINT": "TGI", "REPORTED RESULT": "> 100 µM"}

Ask: Consider the compound shown here: Cc1cc(Cl)ccc1NC(=O)C1C(=O)N(c2ccc(Cl)cc2C)C(=O)/C1=N\NC(N)=S (stereo unspecified) What is its recorded TGI?
Result: > 100 µM

Ask: Consider the compound shown here: CN1CCc2ccccc2C(C(=O)c2ccc3c(c2)OCO3)C1=O (stereo unspecified) What is its recorded TGI?
Result: > 100 µM

Ask: Consider the compound shown here: Cc1c(/C=N/NC(=S)N2CCCCC2)c(=O)n(-c2ccccc2)n1C What is its recorded TGI?
Result: > 100 µM

Ask: Consider the compound shown here: CN(C)CCN1CCc2c([nH]c3ccccc23)C1c1cccnc1 (stereo unspecified) What is its recorded TGI?
Result: > 100 µM

Ask: Consider the compound shown here: CN(CCc1ccccn1)c1ccc2c(c1)C(=O)c1ccccc1-2 What is its recorded TGI?
Result: 98.3 µM

Ask: Consider the compound shown here: O=C1OC([C@H](O)c2cccnc2)c2ccccc21 (stereo partly specified) What is its recorded TGI?
Result: > 10 µM
